Entries annotated with measured Chemical stability data, Buffer pH2
Experiment: HTChem stab assay (chemical stability in buffer pH2, pH4 and pH7 vs DMSO reference)
Format: physicochemical
Conditions: 72 h, 50 µM, pH 2
Unit % implied. Number only.

### Prompt Report Chemical stability data, Buffer pH2 for CCc1nc2ncc(C)cn2c1C(=O)NCc1ccc(-c2nc3n(n2)CCC(OC(F)(F)F)C3)cc1 (stereo not drawn) [Compound 33ab] please.
### Response 64

### Prompt Which Chemical stability data, Buffer pH2 reading was recorded for the compound CCc1nc2ncc(C)cn2c1C(=O)NCc1ccc(-c2cc3n(n2)CCC(C(F)(F)F)C3)cc1 (stereo not drawn) [Compound 20ab] ?
### Response 100

### Prompt What value of measured Chemical stability data, Buffer pH2 is listed for CCc1nc2ncc(C)cn2c1C(=O)NCc1ccc(-c2nc3n(n2)CCC(OC)C3)cc1 (stereo not drawn) [Compound 26ab] ?
### Response 95

This collection of values is drawn from patent US20250034171A1.
